B1: POU domain, class 3, transcription factor 3, residues 408 to 463; numbered along this chain, P20264 (parent)
chain: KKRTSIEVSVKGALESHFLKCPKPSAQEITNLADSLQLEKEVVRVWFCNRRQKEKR

# Variants of: B1
# Run description: abundance fitness (aPCA) (normalised: wild type 0, dead -1); higher = more abundant; growth selection in yeast, the domain comes from the species named
# Measurement context: Homo sapiens
Measured endpoint: abundance fitness
No unit in the answer, please; the number alone is enough.

Measured abundance fitness of L32H : -0.652

Measured abundance fitness of V45Y : -0.28

Measured abundance fitness of L14S : -0.87

Measured abundance fitness of E39C : -0.109

Measured abundance fitness of P24F : -0.827

Measured abundance fitness of N49M : -0.274

Measured abundance fitness of S16F : -0.232

Measured abundance fitness of L19Y : -0.288

Measured abundance fitness of K20T : -0.256

Measured abundance fitness of K2G : -0.025

Measured abundance fitness of E54A : -0.185

Measured abundance fitness of V45T : -0.028

Measured abundance fitness of Q37S : -0.054

Measured abundance fitness of V43M : -0.863

Measured abundance fitness of T30I : -0.035

Measured abundance fitness of Q27Y : -0.195
